Kd by entry:
target.under.test: T1, EsCas13d, nuclease-dead (Eubacterium siraeum, UniProt B0MS50, R295A;H300A;R849A;H854A)
T1 sequence: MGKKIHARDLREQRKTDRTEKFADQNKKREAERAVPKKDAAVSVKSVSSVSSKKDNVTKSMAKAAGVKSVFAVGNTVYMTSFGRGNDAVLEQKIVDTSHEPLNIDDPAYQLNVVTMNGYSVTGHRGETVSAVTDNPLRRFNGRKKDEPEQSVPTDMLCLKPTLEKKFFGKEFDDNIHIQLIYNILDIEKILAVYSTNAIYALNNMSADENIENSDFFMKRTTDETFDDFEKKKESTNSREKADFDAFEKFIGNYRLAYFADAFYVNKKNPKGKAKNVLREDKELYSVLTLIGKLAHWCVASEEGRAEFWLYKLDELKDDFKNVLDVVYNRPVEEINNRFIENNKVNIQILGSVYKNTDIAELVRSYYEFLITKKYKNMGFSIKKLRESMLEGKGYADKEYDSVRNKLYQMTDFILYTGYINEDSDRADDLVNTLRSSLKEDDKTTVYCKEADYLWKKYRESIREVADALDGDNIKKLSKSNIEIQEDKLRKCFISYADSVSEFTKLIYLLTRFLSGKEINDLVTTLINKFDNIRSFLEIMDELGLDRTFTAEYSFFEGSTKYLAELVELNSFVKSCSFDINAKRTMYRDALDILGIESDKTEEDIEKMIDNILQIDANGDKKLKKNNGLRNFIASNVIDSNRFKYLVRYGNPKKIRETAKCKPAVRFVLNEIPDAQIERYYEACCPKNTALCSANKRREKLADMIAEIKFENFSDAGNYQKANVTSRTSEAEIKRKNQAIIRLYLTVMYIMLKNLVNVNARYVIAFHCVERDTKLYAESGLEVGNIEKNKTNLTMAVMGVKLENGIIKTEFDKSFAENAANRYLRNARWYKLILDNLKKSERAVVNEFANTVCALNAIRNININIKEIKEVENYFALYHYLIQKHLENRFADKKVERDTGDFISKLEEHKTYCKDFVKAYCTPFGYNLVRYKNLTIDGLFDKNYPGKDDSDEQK
test.name: crRNA (strand 1, pre-loaded); Mg2+; 40 mM Tris-HCl pH 7.5, 150 mM NaCl, 6 mM MgCl2, 1 mM DTT, 0.1% Tween-20, 0.2 mg/ml BSA; 25 C; 10 min per concentration, then washed
condition.summary: tags: His6-TwinStrep-SUMO cleaved; N-terminal SNAP kept (SNAP-Surface 488); label: 3' end held by stalled T7 RNA polymerase
Report as a plain number; the unit nM is understood.

The following binders have reported results that may help.
target 1 MT 5'PFS UAG 3'PFS CAU (mixed) RNA 1: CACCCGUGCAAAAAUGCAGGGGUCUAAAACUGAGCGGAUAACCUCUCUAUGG RNA 2: GGGAAUGGAUCCACAUCUACGAAUUCUAGCCAUAGAGAGGUUAUCCGCUCACAUAGAUCGGAAGAGCACACGU    65
target 3 insA 3' of 16,insA 3' of 2 (mixed) RNA 1: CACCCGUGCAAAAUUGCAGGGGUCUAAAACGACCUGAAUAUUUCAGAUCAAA RNA 2: GGGAAUGGAUCCACAUCUACGAAUUCGUUUUUGAUCAUGAAAUAUUCAGGUACUGCAGAUCGGAAGAGCACACGU    84.5
target 2 MT 5'PFS UGC 3'PFS CAU (mixed) RNA 1: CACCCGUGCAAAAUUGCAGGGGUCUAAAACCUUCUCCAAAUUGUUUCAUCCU RNA 2: GGGAAUGGAUCCACAUCUACGAAUUCUGCAGGAUGAAACAAUUUGGAGAAGCAUAGAUCGGAAGAGCACACGU    25

Task: Find the recorded Kd belonging to target 1 MT 5'PFS GGC 3'PFS UCG (mixed) RNA 1: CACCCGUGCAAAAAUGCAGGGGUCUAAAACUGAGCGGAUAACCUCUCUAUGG RNA 2: GGGAAUGGAUCCACAUCUACGAAUUCGGCCCAUAGAGAGGUUAUCCGCUCAUCGAGAUCGGAAGAGCACACGU and report it.
Result: 11.1

Task: Which Kd reading was recorded for the binder target 2 MT 5'PFS GGA 3'PFS AUC (mixed) RNA 1: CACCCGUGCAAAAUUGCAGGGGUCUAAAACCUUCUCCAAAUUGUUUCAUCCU RNA 2: GGGAAUGGAUCCACAUCUACGAAUUCGGAAGGAUGAAACAAUUUGGAGAAGAUCAGAUCGGAAGAGCACACGU ?
Result: 12.4

Task: What does the record list as Kd for target 1 del2,del4 (mixed) RNA 1: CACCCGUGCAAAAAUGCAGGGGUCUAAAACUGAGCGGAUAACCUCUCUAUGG RNA 2: GGGAAUGGAUCCACAUCUACGAAUUCGUACCAUAGAGAGGUUAUCCGUACCGAGAUCGGAAGAGCACACGU ?
Result: 42

Task: I'd like to know its Kd. The binder in question is target 2 MT 5'PFS UUG 3'PFS AGC (mixed) RNA 1: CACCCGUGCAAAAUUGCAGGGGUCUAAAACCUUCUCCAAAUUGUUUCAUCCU RNA 2: GGGAAUGGAUCCACAUCUACGAAUUCUUGAGGAUGAAACAAUUUGGAGAAGAGCAGAUCGGAAGAGCACACGU
Result: 13.7

Task: Any idea what Kd was measured for target 2 MT 5'PFS CUU 3'PFS AGG (mixed) RNA 1: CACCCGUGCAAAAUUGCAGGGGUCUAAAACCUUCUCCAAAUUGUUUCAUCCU RNA 2: GGGAAUGGAUCCACAUCUACGAAUUCCUUAGGAUGAAACAAUUUGGAGAAGAGGAGAUCGGAAGAGCACACGU ?
Result: 2.4
